target-under-test: Potassium voltage-gated channel subfamily KQT member 2 (Rattus norvegicus) (UniProt O88943)
Sequence (O88943 whole entry, looked up): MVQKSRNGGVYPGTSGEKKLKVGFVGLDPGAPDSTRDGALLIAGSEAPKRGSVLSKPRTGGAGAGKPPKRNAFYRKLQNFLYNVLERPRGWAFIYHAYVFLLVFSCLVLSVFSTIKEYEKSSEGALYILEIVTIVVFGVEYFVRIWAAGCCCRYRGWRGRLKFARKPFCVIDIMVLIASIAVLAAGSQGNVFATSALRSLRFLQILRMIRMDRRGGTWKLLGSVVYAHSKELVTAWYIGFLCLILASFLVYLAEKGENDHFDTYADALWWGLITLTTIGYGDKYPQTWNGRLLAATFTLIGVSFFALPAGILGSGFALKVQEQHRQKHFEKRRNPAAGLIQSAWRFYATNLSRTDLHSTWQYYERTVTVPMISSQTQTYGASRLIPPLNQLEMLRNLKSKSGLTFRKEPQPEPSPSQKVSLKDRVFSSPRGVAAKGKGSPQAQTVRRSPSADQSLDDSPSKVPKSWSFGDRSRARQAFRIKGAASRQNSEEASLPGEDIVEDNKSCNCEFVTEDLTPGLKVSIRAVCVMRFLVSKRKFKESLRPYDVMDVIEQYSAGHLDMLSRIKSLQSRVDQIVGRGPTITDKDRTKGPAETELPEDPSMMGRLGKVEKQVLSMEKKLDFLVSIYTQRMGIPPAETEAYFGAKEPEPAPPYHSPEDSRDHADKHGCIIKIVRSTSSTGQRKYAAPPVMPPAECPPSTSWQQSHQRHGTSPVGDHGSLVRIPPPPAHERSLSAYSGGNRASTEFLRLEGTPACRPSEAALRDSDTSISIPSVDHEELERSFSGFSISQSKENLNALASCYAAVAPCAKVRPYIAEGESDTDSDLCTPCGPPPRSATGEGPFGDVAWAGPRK
protocol-details: rat KCNQ2 channel potentiation, selectivity assay for KCNQ1 potentiator project, KCNQ2-CHO-K1 cells (AID 493009);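 also: assay conditions were tuned for KCNQ1 rather than KCNQ2 modulators; signal is max minus min fluorescence divided by baseline after thallium stimulus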
assay-setup: FluxOR thallium flux fluorescence, at 10 µM; active compounds read high, scaled: buffer 0, activator control 100
Calls of active or inactive are those of the source.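 The calls were made as follows: active = mean duplicate potentiation above the buffer control mean plus 5 SD of buffer wells; inactive = the rest.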
measured-metric: potentiation

Below are worked cases with known answers.
compound: CCc1ccc(-c2ccc3nnc(SC)n3n2)cc1
potentiation: inactive

compound: OC(c1ccccc1)c1cccnc1 (stereo unspecified)
potentiation: 155% (active)

compound: Cc1cccc(C(=O)NNC(=S)NC(=O)c2cccs2)c1
potentiation: 226% (active)

compound: Cc1ccc(Cn2c(SCC(=O)N3CC(=O)Nc4ccccc43)nc3ccccc3c2=O)cc1
potentiation: inactive

compound: CCCCc1ccc(-c2csc(/C(C#N)=C/c3ccco3)n2)cc1
potentiation: inactive

Proceed to the following item.
Inquiry: Please give the measured potentiation for this compound: "Cc1ccc(C)c(-n2c3nc(=O)n(C)c(=O)c-3cc3ccccc32)c1"
Reply text: inactive

----------
target-under-test: Potassium voltage-gated channel subfamily KQT member 1 (Homo sapiens)
protocol-details: KCNQ1 potassium channel potentiators, confirmation, FluxOR thallium flux, CHO cells, duplicates (AID 493007);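 as to outcome: cells depolarized by a potassium plus thallium sulfate stimulus after compound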
assay-setup: KCNQ1 cell line, FluxOR thallium flux fluorescence, at 10 µM, % of reference activator effect, buffer zero
Activity calls are given as the source filed them.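 The calls were made as follows: active = potentiation averaged over duplicate wells exceeding buffer-only control mean by more than 3 SD; inactive = the rest.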
Please answer using one outcome listed in active, inactive

Consider the following illustrative entries.
compound: Oc1ccc2ccccc2c1N=Nc1nccs1
qualitative-label: active
//
compound: COC(=O)c1ccc(/C=C/c2ccc3cccc(OC)c3n2)cc1
qualitative-label: inactive
//
compound: CC(C)(C)c1cc(C(=O)NNC(=O)c2ccc(Cl)cc2)no1
qualitative-label: active
//
compound: CN(C)c1ccnc(N(Cc2ccccc2)Cc2ccccc2)c1C#N
qualitative-label: inactive
//
compound: CCS(=O)(=O)Nc1ccc(C(=O)CC2(O)C(=O)Nc3ccccc32)cc1 (centres undefined)
qualitative-label: inactive

Inquiry: Hi, do you know how "CC(=O)SCC(=O)N=c1sc2cc(F)ccc2n1C" came out in this test?
Reply text: inactive

Inquiry: Hi, do you know how "Cc1cccc(NC(=S)NC(=O)c2ccc(Br)o2)c1C" came out in this test?
Reply text: inactive

Inquiry: Hi, do you know how CCCc1cc(-c2n[nH]c(=S)n2C(C)c2ccccc2)cs1 (centres undefined) came out in this test?
Reply text: active

----------
target-under-test: Potassium voltage-gated channel subfamily KQT member 1 (Homo sapiens) (UniProt P51787)
Sequence (P51787 whole entry, looked up): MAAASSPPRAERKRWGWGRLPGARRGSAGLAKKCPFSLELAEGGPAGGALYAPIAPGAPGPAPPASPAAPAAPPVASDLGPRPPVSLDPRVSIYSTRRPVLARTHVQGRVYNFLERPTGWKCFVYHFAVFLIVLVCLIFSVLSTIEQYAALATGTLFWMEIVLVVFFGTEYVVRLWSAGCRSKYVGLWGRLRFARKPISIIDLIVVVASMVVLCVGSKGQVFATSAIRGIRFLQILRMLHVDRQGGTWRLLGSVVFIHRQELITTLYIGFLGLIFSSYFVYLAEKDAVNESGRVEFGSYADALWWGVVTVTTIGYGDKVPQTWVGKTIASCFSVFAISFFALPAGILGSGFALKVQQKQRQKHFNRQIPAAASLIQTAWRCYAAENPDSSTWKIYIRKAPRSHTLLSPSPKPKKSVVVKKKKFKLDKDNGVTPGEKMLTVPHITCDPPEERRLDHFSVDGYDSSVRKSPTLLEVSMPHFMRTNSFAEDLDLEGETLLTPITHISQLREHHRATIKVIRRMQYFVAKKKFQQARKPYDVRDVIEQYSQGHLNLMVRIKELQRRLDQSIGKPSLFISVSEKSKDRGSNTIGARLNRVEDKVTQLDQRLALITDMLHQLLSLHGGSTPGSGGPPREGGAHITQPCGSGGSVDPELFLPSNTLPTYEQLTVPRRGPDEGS
protocol-details: KCNQ1 potassium channel potentiators, confirmation, FluxOR thallium flux, CHO cells, duplicates (AID 493007);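 as to outcome: cells depolarized by a potassium plus thallium sulfate stimulus after compound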
assay-setup: KCNQ1 cell line, FluxOR thallium flux fluorescence, at 10 µM, % of reference activator effect, buffer zero
The source made the active and inactive calls.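 How the source made its calls: active means potentiation averaged over duplicate wells exceeding buffer-only control mean by more than 3 SD; inactive means the rest.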
Please answer using one outcome listed in active, inactive

compound: COc1ccc(NC(=O)C(=O)NNC(=O)c2cccs2)cc1
target-under-test: Potassium voltage-gated channel subfamily KQT member 1 (Homo sapiens) (UniProt P51787)
qualitative-label: active

compound: CCc1ccc2oc(C(=O)NC3CCS(=O)(=O)C3)cc(=O)c2c1 (stereo unspecified)
target-under-test: Potassium voltage-gated channel subfamily KQT member 1 (Homo sapiens) (UniProt P51787)
qualitative-label: inactive

compound: COc1ccc(OC)c(-c2cc(C(=O)N3CCN(c4ccccc4)CC3)no2)c1
target-under-test: Potassium voltage-gated channel subfamily KQT member 1 (Homo sapiens) (UniProt P51787)
qualitative-label: inactive

compound: Cc1cc(C)n(-c2nc(NCCN(C)C)c3c4c(sc3n2)COC(C)(C)C4)n1
target-under-test: Potassium voltage-gated channel subfamily KQT member 1 (Homo sapiens) (UniProt P51787)
qualitative-label: inactive

compound: CCOC(=O)c1sc2nc(C)[nH]c(=S)c2c1C
target-under-test: Potassium voltage-gated channel subfamily KQT member 1 (Homo sapiens) (UniProt P51787)
qualitative-label: active

compound: CCOc1ccc(NC(=O)CN(C)C(=O)C2CCN(c3ncnc4sc(C)c(C)c34)CC2)cc1OCC
target-under-test: Potassium voltage-gated channel subfamily KQT member 1 (Homo sapiens) (UniProt P51787)
qualitative-label: inactive

compound: CN(C)CCNc1ncnc2c1sc1nc(N3CCCC3)c3c(c12)CC(C)(C)OC3
target-under-test: Potassium voltage-gated channel subfamily KQT member 1 (Homo sapiens) (UniProt P51787)
qualitative-label: active

compound: S=c1nc(Cc2ccc(Cl)cc2)[nH]c2ccccc12
target-under-test: Potassium voltage-gated channel subfamily KQT member 1 (Homo sapiens) (UniProt P51787)
qualitative-label: active

compound: CC(Sc1nncs1)C(=O)NC1CCCCC1C (stereo unspecified)
target-under-test: Potassium voltage-gated channel subfamily KQT member 1 (Homo sapiens) (UniProt P51787)
qualitative-label: inactive

compound: COc1cc(OC)cc(C(=O)NNC(=O)C(=O)Nc2cc(OC)c(Cl)cc2OC)c1
target-under-test: Potassium voltage-gated channel subfamily KQT member 1 (Homo sapiens) (UniProt P51787)
qualitative-label: active

We now examine a further compound.
Inquiry: Hi, do you know how "Cc1cccc(C)c1NC(=S)NC(=O)c1ccc(Br)o1" came out in this test?
Reply text: active

----------
target-under-test: Short transient receptor potential channel 4 (Mus musculus) (UniProt Q9QUQ5)
Sequence (Q9QUQ5 whole entry, looked up): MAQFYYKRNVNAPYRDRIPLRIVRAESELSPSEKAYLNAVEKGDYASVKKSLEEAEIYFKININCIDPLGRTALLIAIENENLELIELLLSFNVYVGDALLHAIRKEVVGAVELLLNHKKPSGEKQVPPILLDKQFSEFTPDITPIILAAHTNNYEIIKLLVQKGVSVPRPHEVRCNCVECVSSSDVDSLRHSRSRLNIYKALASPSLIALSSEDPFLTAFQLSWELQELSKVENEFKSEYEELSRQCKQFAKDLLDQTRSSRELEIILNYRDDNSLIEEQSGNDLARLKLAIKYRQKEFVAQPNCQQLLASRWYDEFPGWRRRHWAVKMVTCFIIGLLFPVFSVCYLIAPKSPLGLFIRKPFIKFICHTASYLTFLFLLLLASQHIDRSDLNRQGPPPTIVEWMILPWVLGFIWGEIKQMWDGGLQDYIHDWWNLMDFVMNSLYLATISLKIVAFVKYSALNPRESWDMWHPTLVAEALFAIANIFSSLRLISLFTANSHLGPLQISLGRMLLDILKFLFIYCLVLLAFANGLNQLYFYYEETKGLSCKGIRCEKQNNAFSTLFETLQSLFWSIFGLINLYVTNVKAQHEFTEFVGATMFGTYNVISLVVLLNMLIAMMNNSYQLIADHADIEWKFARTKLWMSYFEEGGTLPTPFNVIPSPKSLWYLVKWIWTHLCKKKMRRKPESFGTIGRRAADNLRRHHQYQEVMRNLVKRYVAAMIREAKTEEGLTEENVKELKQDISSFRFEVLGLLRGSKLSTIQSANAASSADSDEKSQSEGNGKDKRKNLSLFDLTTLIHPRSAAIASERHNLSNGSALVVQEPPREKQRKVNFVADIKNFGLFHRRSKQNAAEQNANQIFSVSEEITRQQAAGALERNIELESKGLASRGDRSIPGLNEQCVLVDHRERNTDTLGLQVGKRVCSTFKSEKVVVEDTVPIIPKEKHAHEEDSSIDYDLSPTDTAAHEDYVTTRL
protocol-details: inhibitors of mouse TRPC4 channel, confirmation, cell-based, Fluo4, HEK293 TRPC4beta/mu-opioid (AID 2636)
assay-setup: DAMGO, Fluo4 calcium flux, at 10 µM
Active and inactive are the calls of the source.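 Rule for the calls: active = calcium signal cut by more than 3 SD below the full-agonist control yet still positive, in both repeats and the earlier primary screen; inactive = the rest.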
Please answer using one outcome listed in TRUE = active, FALSE = inactive

Inquiry: Hi, do you know how OCC1(CC2CCCCO2)CCN(Cc2nc3ccccc3[nH]2)CC1 (stereo not drawn) came out in this test?
Reply text: TRUE

----------
target-under-test: Potassium voltage-gated channel subfamily KQT member 1 (Homo sapiens) (UniProt P51787)
protocol-details: KCNQ1 potassium channel potentiators, confirmation, FluxOR thallium flux, CHO cells, duplicates (AID 493007);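 as to outcome: cells depolarized by a potassium plus thallium sulfate stimulus after compound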
assay-setup: KCNQ1 cell line, FluxOR thallium flux fluorescence, at 10 µM, % of reference activator effect, buffer zero
Active and inactive are the calls of the source.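 How the source made its calls: active means potentiation averaged over duplicate wells exceeding buffer-only control mean by more than 3 SD; inactive means the rest.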
Please answer using one outcome listed in TRUE = active, FALSE = inactive

line-notation: N#Cc1ccccc1Oc1ccccc1C=O
qualitative-label: TRUE
//
line-notation: Cc1ccc(CNc2nc3c([nH]2)c(=O)n(C)c(=O)n3C)cc1
qualitative-label: FALSE

Inquiry: Hi, do you know how "Cc1ccc(C(=O)OCC(=O)N(C)c2ccccc2)cc1C" came out in this test?
Reply text: TRUE

Inquiry: Hi, do you know how "CCc1ccc2[nH]c(C(=O)Nc3ccc(F)cc3Br)cc2c1" came out in this test?
Reply text: FALSE

Inquiry: Hi, do you know how "O=C(Nc1cccc(S(=O)(=O)NC2=NCCC2)c1)c1c(F)cccc1Cl" came out in this test?
Reply text: FALSE

Inquiry: Hi, do you know how "Cc1cc(/C=N/NC(=O)c2nn(C)cc2Cl)c(C)n1-c1cccc(Br)c1" came out in this test?
Reply text: FALSE

----------
target-under-test: Potassium voltage-gated channel subfamily KQT member 2 (Rattus norvegicus) (UniProt O88943)
protocol-details: rat KCNQ2 channel potentiation, selectivity assay for KCNQ1 potentiator project, KCNQ2-CHO-K1 cells (AID 493009);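 also: assay conditions were tuned for KCNQ1 rather than KCNQ2 modulators; signal is max minus min fluorescence divided by baseline after thallium stimulus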
assay-setup: FluxOR thallium flux fluorescence, at 10 µM; active compounds read high, scaled: buffer 0, activator control 100
Activity calls are given as the source filed them.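 How the source made its calls: active means mean duplicate potentiation above the buffer control mean plus 5 SD of buffer wells; inactive means the rest.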
measured-metric: potentiation

molecule: COc1ccccc1C(=O)OCC(=O)Nc1ccc(Cl)cn1
readout-value: inactive

molecule: COc1cccc(OC)c1OCCOCCN1CCN(C)CC1
readout-value: inactive

molecule: O=c1c2cc(Br)ccc2nc(-c2ccccc2)n1O
readout-value: 314% (active)

molecule: Cc1cccc(N2CCN(C(=O)Cn3sc4nc(C)cc(C)c4c3=O)CC2C)c1 (stereo not given)
readout-value: inactive

molecule: CN(Cc1ccccc1)C(=S)NC(=O)c1ccccc1
readout-value: 157% (active)

molecule: CCCCN(CCCC)C(=S)NC(=O)C(C)(C)C
readout-value: inactive

molecule: C/C(=N\NC(=O)c1cccc(F)c1)c1ccc(Br)s1
readout-value: inactive

molecule: O=C(NC(=S)NCCC1=CCCCC1)c1ccco1
readout-value: 315% (active)

molecule: Cc1cnc(NC(=O)c2ccc(-c3nc4ccccc4s3)o2)s1
readout-value: inactive

molecule: Cc1ccc(/C=N/NC(=O)c2cc(C3CC3)nc3ccccc23)o1
readout-value: inactive

Proceed to the following item.
Inquiry: Please give the measured potentiation for this molecule: "Cc1cc(C=NCCO)c(C)n1-c1cc(Cl)ccc1Cl"
Reply text: inactive

----------
target-under-test: Potassium voltage-gated channel subfamily KQT member 1 (Homo sapiens)
protocol-details: KCNQ1 channel current potentiators, confirmation, orthogonal assay for KCNQ1 potentiator project, IonWorks patch clamp, KCNQ1-CHO cells (AID 493184)
assay-setup: automated patch clamp current, at 10 µM; active compounds read high
The source made the active and inactive calls.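 Rule for the calls: active = current rise at least 3 SD above the untreated control mean in each of two repeat wells; inactive = the rest.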
measured-metric: current potentiation

compound: CCN(CC)C(=S)NC(=O)c1ccc(OC)c(Br)c1
measured-metric: current potentiation
readout-value: inactive
--
compound: CCCCn1c(=S)[nH]c2ccccc2c1=O
measured-metric: current potentiation
readout-value: inactive
--
compound: CCC1CCc2c(sc(NC(=O)C3CC=CCC3C(=O)O)c2C#N)C1 (centres undefined)
measured-metric: current potentiation
readout-value: inactive
--
compound: CCC(C)CCCCCCCCCCC(=O)O (centres undefined)
measured-metric: current potentiation
readout-value: inactive
--
compound: COc1ccc(-c2nc(=S)c3c([nH]2)Oc2ccc(C)cc2C3)cc1O
measured-metric: current potentiation
readout-value: inactive
--
compound: COCCCN1C(=O)C(=O)/C(=C(/O)c2ccc(C)cc2)C1c1ccccc1 (centres undefined)
measured-metric: current potentiation
readout-value: inactive
--
compound: COc1ccccc1C(=O)NNC(=O)C(=O)NC(C)C
measured-metric: current potentiation
readout-value: inactive
--
compound: Cc1cc(C)nc(NC(=O)/C=C/c2ccccc2Cl)n1
measured-metric: current potentiation
readout-value: inactive
--
compound: O=C(Nc1nnc(-c2cccs2)o1)c1cccc(C(F)(F)F)c1
measured-metric: current potentiation
readout-value: inactive
--
compound: O=c1c2c(-c3ccco3)csc2nc(SCc2cn3cccnc3n2)n1-c1ccccc1
measured-metric: current potentiation
readout-value: inactive

Inquiry: Please give the measured current potentiation for this compound: "Cc1ccc(-n2c(=S)[nH]c3sc4c(c3c2=O)CCC4)cc1"
Reply text: inactive

Inquiry: Please give the measured current potentiation for this compound: "CC(=O)c1c(C)[nH]c(-c2ccccc2)nc1=S"
Reply text: inactive

Inquiry: Please give the measured current potentiation for this compound: "O=C(NNC(=S)NC(=O)c1ccco1)c1ccc(F)cc1"
Reply text: inactive

Inquiry: Please give the measured current potentiation for this compound: "O=C(NNc1nc2c(F)cccc2s1)c1cc(=O)c2ccccc2o1"
Reply text: inactive

Inquiry: Please give the measured current potentiation for this compound: "Fc1ccc(/C=N/n2c(C3CCCCC3)n[nH]c2=S)cc1"
Reply text: inactive

Inquiry: Please give the measured current potentiation for this compound: "CS(=O)(=O)N1CCN(Cc2ccc(C(F)(F)F)cc2)CC1"
Reply text: inactive
